Measured values drawn from patent US11291655B2 for this set.

System: Daudi Cell Culture
ASSAY: Compound primary screening in Daudi cell culture
Assay type: cell-based
MEASUREMENT SETUP: Homo sapiens, 168 h; Daudi cells, 1250 cells per well, reads on Day 7
pEC50: −log10 of the molar value.
ENDPOINT: pEC50

What does the record list as pEC50 for `CC(C)OC(=O)Nc1ccc(-c2ncc(-c3ccc(NC(=O)[C@@H]4CCCN4)cc3S(=O)(=O)NC(C)(C)C)s2)cc1` ? > 5.30

Look up pEC50 for this molecule: CC(C)OC(=O)Nc1ccc(-c2ncc(-c3ccc(N4CC(c5ccccc5)OC4=O)cc3S(=O)(=O)NC(C)(C)C)s2)cc1 (stereo not shown) < 5.00

For `CC(C)OC(=O)Nc1ccc(-c2ncc(-c3ccc(CNS(=O)(=O)c4ccccc4)cc3S(=O)(=O)NC(C)(C)C)s2)cc1` , what is its reported pEC50? > 5.00

----------
System: Daudi Cell Culture
ASSAY: Compound primary screening in Daudi cell culture
Format: cell-based
MEASUREMENT SETUP: Homo sapiens, 168 h; Daudi cells, 1250 cells per well, reads on Day 7
ENDPOINT: EC50

CC(C)OC(=O)Nc1ccc(-c2ncc(-c3ccc(NC(=O)NCc4ccccc4)cc3S(=O)(=O)NC(C)(C)C)s2)cc1: < 1 µM

Endpoint output: EC50 of `CC(C)NC(=S)Nc1ccc(-c2ncc(-c3ccc(NC(=O)NCc4cn[nH]c4)cc3S(=O)(=O)NC(C)(C)C)s2)cc1` . Value? > 10 µM

Recorded EC50 of `CC(C)OC(=O)Nc1ccc(-c2ncc(-c3ccc(CNC(=O)Cc4ccccc4)cc3S(=O)(=O)NC(C)(C)C)s2)cc1` , please. < 10 µM

----------
Tested on: Daudi Cell Culture
ASSAY: Compound primary screening in Daudi cell culture
Type: cell-based
MEASUREMENT SETUP: Homo sapiens, 168 h; Daudi cells, 1250 cells per well, reads on Day 7
Below, each entry is listed with its recorded EC50.

Solved cases below.
COC(=O)Nc1ccc(-c2cnc(-c3ccc(NC(=O)OC(C)C)cc3)s2)c(S(=O)(=O)NC(C)(C)C)c1: < 1 µM
CC(=O)Nc1ccc(-c2cnc(-c3ccc(OC(=O)NC(C)C)cc3)s2)c(S(=O)(=O)NC(C)(C)C)c1: < 5 µM
CCC(=O)NCc1ccc(-c2cnc(-c3ccc(NC(=O)OC(C)C)cc3)s2)c(S(=O)(=O)NC(C)(C)C)c1 [Compound P1]: < 10 µM

Entry `CC(C)OC(=O)Nc1ccc(-c2ncc(-c3ccc(NC(=O)CCc4ccccc4)cc3S(=O)(=O)NC(C)(C)C)s2)cc1` : reported EC50 = ? < 1 µM

Given the entry `CC(=O)Nc1ccc(-c2cnc(-c3ccc(NC(=S)NC(C)C)cc3)s2)c(S(=O)(=O)N2CCNCC2)c1` , report its measured EC50. < 5 µM

Requested field: EC50. Item: `CC(=O)Nc1ccc(-c2cnc(-c3ccc(NC(=O)CC(C)C)cc3)s2)c(S(=O)(=O)NC(C)(C)C)c1` > 10 µM

Need EC50, item `CC(=O)Nc1ccc(-c2cnc(-c3ccc(NC(=S)NC(C)C)cc3)s2)c(S(=O)(=O)N[C@H]2CC[C@H](O)CC2)c1` > 10 µM

Would you mind telling me what EC50 value was observed for `CC(=O)Nc1ccc(-c2ncc(-c3ccc(N)cc3S(=O)(=O)NC(C)(C)C)s2)cc1` ? > 10 µM

Please look up its EC50: `CC(C)NC(=S)Nc1ccc(-c2ncc(-c3ccc(NC(=O)NCc4cnc[nH]4)cc3S(=O)(=O)NC(C)(C)C)s2)cc1` < 10 µM

I have this molecule here, `CC(C)NC(=S)Nc1ccc(-c2ncc(-c3ccc(N(C)C(=O)N(C)Cc4ccccc4)cc3S(=O)(=O)NC(C)(C)C)s2)cc1` , and I need its recorded EC50. < 1 µM

Entry under review: `C/C=C/COC(=O)Nc1ccc(-c2cnc(-c3ccc(NC(=O)OC(C)C)cc3)s2)c(S(=O)(=O)NC(C)(C)C)c1` . Reported EC50? < 1 µM

Entry under review: `CC(C)NC(=S)Nc1ccc(-c2ncc(-c3ccc(NC(=O)NCc4ccccc4)cc3S(=O)(=O)NC(C)(C)C)s2)cc1` . Reported EC50? < 5 µM

For the molecule shown here, `COC(=O)NCc1ccc(-c2cnc(-c3ccc(NC(=O)OC(C)C)cc3)s2)c(S(=O)(=O)NC(C)(C)C)c1` , give the reported EC50. < 10 µM

Recorded EC50 of `CC(=O)Nc1ccc(-c2cnc(-c3ccc(NC(=S)NC(C)C)cc3)s2)c(S(=O)(=O)NCCCN)c1` , please. > 10 µM

Could you tell me which EC50 is on file for `CC(C)OC(=O)Nc1ccc(-c2ncc(-c3ccc(C(=O)NCc4ccccc4)cc3S(=O)(=O)NC(C)(C)C)s2)cc1` ? > 10 µM

Fill in the blank: the reported EC50 of `CC(C)OC(=O)Nc1ccc(-c2ncc(-c3ccc(CNC(=O)Cc4ccncc4)cc3S(=O)(=O)NC(C)(C)C)s2)cc1` is ____. < 5 µM

Using the record for `COC(=O)CNS(=O)(=O)c1cc(NC(C)=O)ccc1-c1cnc(-c2ccc(NC(=S)NC(C)C)cc2)s1` , report its EC50. > 10 µM

Reported EC50, molecule CC(C)OC(=O)Nc1ccc(-c2ncc(-c3ccc(N4CCC(Cc5ccccc5)C4=O)cc3S(=O)(=O)NC(C)(C)C)s2)cc1 (stereo not shown) : ____ > 10 µM

What does the record list as EC50 for `CC(=O)Nc1ccc(-c2ncc(-c3ccc(NC(=S)NC(C)C)cc3S(=O)(=O)NC(C)(C)C)s2)c(S(=O)(=O)NC(C)(C)C)c1` ? < 5 µM

EC50 lookup needed for `CC(C)OC(=O)Nc1ccc(-c2ncc(-c3ccc(CNC(=O)CCO)cc3S(=O)(=O)NC(C)(C)C)s2)cc1` , thanks. > 10 µM

----------
Reported pEC50 values are given for each entry in this list.
System: Daudi Cell Culture
ASSAY: Compound primary screening in Daudi cell culture
Assay type: cell-based
MEASUREMENT SETUP: Homo sapiens, 168 h; Daudi cells, 1250 cells per well, reads on Day 7
pEC50: −log10 of the molar value.

Solved cases (10 shown):
COCCS(=O)(=O)Nc1ccc(-c2ncc(-c3ccc(NC(C)=O)cc3S(=O)(=O)NC(C)(C)C)s2)cc1: < 5.00
CC(=O)Nc1ccc(-c2cnc(-c3ccc(NC(=S)NC(C)C)cc3)s2)c(S(=O)(=O)NCCN(C)C)c1: < 5.00
CC(C)NC(=S)Nc1ccc(-c2ncc(-c3ccc(Nc4nccn4C)cc3S(N)(=O)=O)s2)cc1: < 5.00
CC(C)OC(=O)Nc1ccc(-c2ncc(-c3ccc(NS(=O)(=O)c4ccccc4)cc3S(=O)(=O)NC(C)(C)C)s2)cc1 [Compound E1]: < 5.00
CC(=O)Nc1ccc(-c2cnc(-c3ccc(NC(=S)NC(C)C)cc3)s2)c(S(=O)(=O)NCc2ccccn2)c1: < 5.00
CC(C)(C)NS(=O)(=O)c1cc(Nc2nccs2)ccc1-c1cnc(-c2ccc(N)cc2)s1: < 5.00
CC(C)OC(=O)Nc1ccc(-c2ncc(-c3ccc(O)cc3S(=O)(=O)NC(C)(C)C)s2)cc1: > 5.30
CC(=O)Nc1ccc(-c2cnc(-c3ccc(NC(=S)NC(C)C)cc3)s2)c(S(=O)(=O)N2CCOCC2)c1: < 5.00
CC(=O)Nc1ccc(-c2cnc(-c3ccc(NC(=S)NC(C)C)cc3)s2)c(S(=O)(=O)N2C3CCC2CC3)c1: > 6.00
CCOC(=O)NCc1ccc(-c2cnc(-c3ccc(NC(=O)OC(C)C)cc3)s2)c(S(=O)(=O)NC(C)(C)C)c1: > 5.00

# lookup: pEC50 of `CC(C)OC(=O)Nc1ccc(-c2ncc(-c3ccc(NC(=O)OCCN)cc3S(=O)(=O)NC(C)(C)C)s2)cc1` > 5.30

Please report the recorded pEC50 for CC(C)NC(=S)Nc1ccc(-c2ncc(-c3ccc(NC(=O)NC(C)c4ccccc4)cc3S(=O)(=O)NC(C)(C)C)s2)cc1 (stereo not shown) . > 5.00

Quick one: pEC50 for `CC(C)OC(=O)Nc1ccc(-c2ncc(-c3ccc(CNC(=O)Cc4cccnc4)cc3S(=O)(=O)NC(C)(C)C)s2)cc1` ? < 5.00

----------
Tested on: Daudi Cell Culture
ASSAY: Compound primary screening in Daudi cell culture
Format: cell-based
MEASUREMENT SETUP: Homo sapiens, 168 h; Daudi cells, 1250 cells per well, reads on Day 7
pEC50: −log10 of the molar value.
ENDPOINT: pEC50

Worked cases, answers included:
CNS(=O)(=O)c1cc(NC(C)=O)ccc1-c1cnc(-c2ccc(NC(=S)NC(C)C)cc2)s1: < 5.00
CC(C)NC(=O)Nc1ccc(-c2ncc(-c3ccc(NS(C)(=O)=O)cc3S(=O)(=O)NC(C)(C)C)s2)cc1: < 5.00
CC(C)OC(=O)Nc1ccc(-c2ncc(-c3ccc(NC(=O)C4CC4)cc3S(=O)(=O)NC(C)(C)C)s2)cc1: > 5.30
CC(=O)Nc1ccc(-c2cnc(-c3ccc(NC(=O)OC(C)(C)C)cc3)s2)c(S(=O)(=O)NC(C)(C)C)c1: > 5.30

What does the data say about its pEC50? Entry: `CC(C)OC(=O)Nc1ccc(-c2ncc(-c3ccc(N4CCCC4=O)cc3S(=O)(=O)NC(C)(C)C)s2)cc1F` > 5.30
